- testSystem: human PD-L1 expressed on cell surface (human, UniProt Q9NZQ7 19-290)
- Sequence (Q9NZQ7 19-290 limits assumed): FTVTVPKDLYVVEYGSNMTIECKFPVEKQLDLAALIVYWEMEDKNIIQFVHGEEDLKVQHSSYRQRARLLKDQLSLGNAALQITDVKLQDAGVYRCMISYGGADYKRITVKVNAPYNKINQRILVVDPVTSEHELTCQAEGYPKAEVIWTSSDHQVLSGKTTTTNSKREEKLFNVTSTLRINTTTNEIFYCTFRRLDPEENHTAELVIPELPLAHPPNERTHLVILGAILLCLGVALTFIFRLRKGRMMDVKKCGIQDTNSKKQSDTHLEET
- procedureDetails: cell-based or functional assay
reportedProperty: Internalization (%), FACS, 0.5 µg/ml, 2 h
Write the number in % without appending the unit.

Query: Internalization (%), FACS, 0.5 µg/ml, 2 h; subject: 28B3 (antibody, human IgG1, V domains shown) VH: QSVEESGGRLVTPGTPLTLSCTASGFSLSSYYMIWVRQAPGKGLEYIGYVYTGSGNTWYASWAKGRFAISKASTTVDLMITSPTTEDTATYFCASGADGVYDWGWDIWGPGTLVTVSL VL: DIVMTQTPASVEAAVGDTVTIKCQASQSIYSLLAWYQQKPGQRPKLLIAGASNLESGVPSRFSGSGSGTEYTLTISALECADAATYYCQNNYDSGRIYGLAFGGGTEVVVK
12

Origin of values: patent US20250171542A1
